tested.target: T1, pTAKLDEESILKQ-Biotin
T1 peptide: [pT]AKLDEESILKQ-{Biotin′}
assay.protocol: Octet (BLI), fixed reagent concentration;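 also: octet binding of candidate PTM-specific affinity reagents, each at one fixed concentration, to biotinylated phospho-Thr or phospho-Ser peptides, with unmodified biotinylated peptides serving as controls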
Primed or numbered codes have the meaning given here. Where no end group is shown, it is not given here. [ ]: non-standard residue; d: D form. pT = C[C@@H](OP(=O)(O)O)[C@H](N)C(=O)O; Biotin′ = not defined here
experimental.readout: Octet binding assay response
// return just the number, without any unit appended

[ask] Indicate the recorded Octet binding assay response value for this binder: PM20 (Human/RB15B) (other) MQLGWNGLLVLKNSCFPTSMHILEGDQGVISSLLKDHTSGSKLTQLKIAQRLRLDQPKLDEVTRRIKQGSPNGYAVLLATQATPSGLGTEGMPTVEPGLQRRLLRNLVSYLKQKQAAGVISLPVGGSKGRDGTGMLYAFPPCDFSQQYLQSALRTLGKLEEEHMVIVIVRDTA
[reply] 0.3
